TEST_SYSTEM: UniProtKB P34972
PROCEDURE_DETAILS: Receptor binding assay, CB2 ([3H]CP 55,940 displacement)
RECORDED_CONDITIONS: ratio of Ki CB-1 to Ki CB-2
Experimental: The assays were carried out in 96 well plates obtained from Millipore, Inc. fitted with glass fiber filters (hydrophilic, GFC filters) having a pore size of 1.2μ. The filters were soaked with 0.05% polyethyleneimine solution and washed 5× with deionized water prior to carrying out the assays. […]
Please use the following CB1/CB2 ranges when assigning a class: interval 1: < 6; interval 2: ≥ 6 and < 100; interval 3: ≥ 100

COMPOUND: CC(C)(c1ccccc1)c1cc(O)c(-c2cc(Cl)cc(Cl)c2)c(O)c1
LABEL_VALUE: interval 2

COMPOUND: COc1cc(C(O)c2ccccc2)cc(OC)c1-c1cc(Cl)cc(Cl)c1 (stereo not shown)
LABEL_VALUE: interval 3

COMPOUND: COc1cc(C(=O)c2cccs2)cc(O)c1-c1cc(Cl)cc(Cl)c1
LABEL_VALUE: interval 3

COMPOUND: COc1cc(C(=O)c2ccccc2)cc(O)c1-c1cc(Cl)cc(Cl)c1
LABEL_VALUE: interval 3

COMPOUND: Cc1cccc(-c2ccc(C(=O)c3ccccc3)cc2O)c1
LABEL_VALUE: interval 1

COMPOUND: COc1cc(C(O)c2cccs2)cc(OC)c1-c1cc(Cl)cc(Cl)c1 (stereo not shown)
LABEL_VALUE: interval 3

COMPOUND: CC(C)(c1ccc(-c2cc(Cl)cc(Cl)c2)c(O)c1)c1cccs1
LABEL_VALUE: interval 1

COMPOUND: Cc1cccc(-c2c(O)cc(C(C)(C)c3ccccc3)cc2O)c1
LABEL_VALUE: interval 2

COMPOUND: O=C(c1ccccc1)c1cc(O)c(-c2cc(Cl)cc(Cl)c2)c(O)c1
LABEL_VALUE: interval 2

COMPOUND: O=C(c1cc(O)c(-c2cc(Cl)cc(Cl)c2)c(O)c1)c1cccs1
LABEL_VALUE: interval 3

COMPOUND: COc1cc(C(=O)c2ccccc2)cc(O)c1-c1cccc(C)c1
LABEL_VALUE: interval 1

COMPOUND: Cc1cccc(-c2ccc(C(C)(C)c3ccccc3)cc2O)c1
LABEL_VALUE: interval 2

COMPOUND: CC(C)(c1cc(O)c(-c2cc(Cl)cc(Cl)c2)c(O)c1)c1cccs1
LABEL_VALUE: interval 1

COMPOUND: Cc1cccc(-c2c(O)cc(C(C)(C)c3cccs3)cc2O)c1
LABEL_VALUE: interval 1

COMPOUND: CC(C)(c1ccccc1)c1ccc(-c2cc(Cl)cc(Cl)c2)c(O)c1
LABEL_VALUE: interval 3

Where do these numbers come from? They come from patent US9139546B2.
